For each entry below, report its TCF/Wnt firefly luciferase reporter signal value.
- Test system: SW480
- TEST_METHOD_NOTES: TCF/Wnt firefly luciferase reporter signal relative to plate median (fraction of plate median); higher = higher Wnt reporter signal
- CONDITION_LABEL: 5 µM; treatment time 24 h; reporter: 7TFP
// print number alone

Given the compound `COc1cc(-c2coc3cc(O[C@@H]4O[C@H](CO)[C@@H](O)[C@H](O)[C@H]4O)c(OC)c(O)c3c2=O)cc(O)c1OC` , what is its reported TCF/Wnt firefly luciferase reporter signal?
0.885

Given the compound `CCCc1nn(C)c2c(=O)[nH]c(-c3cc(S(=O)(=O)N4CCN(C)CC4)ccc3OCC)nc12` , what is its reported TCF/Wnt firefly luciferase reporter signal?
1.09

Given the compound `FC(F)(F)c1ccccc1-n1ccnc1` , what is its reported TCF/Wnt firefly luciferase reporter signal?
0.912

Given the compound `CCN1CCN(c2cc3c(cc2F)c(=O)c(C(=O)O)cn3C2CC2)CC1` , what is its reported TCF/Wnt firefly luciferase reporter signal?
0.94

Given the compound CC1(C)C2CC(=O)O[C@@]3(C)C4=CC(=O)O[C@@H](c5ccoc5)[C@]4(C)CCC3[C@@]2(C)C=C[C@H]1O (stereo not given in full) , what is its reported TCF/Wnt firefly luciferase reporter signal?
1.04

Given the compound `CON` , what is its reported TCF/Wnt firefly luciferase reporter signal?
0.981

Given the compound `CC(C)=CCC1=C(O)C(=O)c2ccccc2C1=O` , what is its reported TCF/Wnt firefly luciferase reporter signal?
1.04

Given the compound `CC(C)=CCc1c(O)cc2occ(-c3ccc4c(c3)OCO4)c(=O)c2c1O` , what is its reported TCF/Wnt firefly luciferase reporter signal?
0.902

Given the compound COc1cc(C(N)=O)ccc1O [4-Hydroxy-3-methoxy-benzoic acid amide, Vanillic acid amide] , what is its reported TCF/Wnt firefly luciferase reporter signal?
0.942

Given the compound COC[C@H]1O[C@@H](OC2OC[C@@H]3O[C@]4(O[C@H]3[C@H]2OC(=O)C(C)C)O[C@H](C)[C@@](O)(C(C)=O)[C@@H]2OCO[C@H]24)[C@@H](OC)[C@@H](O)[C@@H]1O[C@@H]1O[C@H](C)[C@H](OC)[C@H](O[C@H]2C[C@@]3(C)OC4(C[C@@H](O)[C@H](O[C@H]5C[C@@H](O)[C@H](OC(=O)c6c(C)c(Cl)c(O)c(Cl)c6OC)[C@@H](C)O5)[C@@H](C)O4)O[C@@H]3[C@@H](C)O2)[C@H]1O (stereo not given in full) , what is its reported TCF/Wnt firefly luciferase reporter signal?
1.03

Given the compound `C[C@@H]1C/C=C/C=C/C=C/C=C/[C@H](O[C@@H]2O[C@H](C)[C@@H](O)[C@H](N)[C@@H]2O)C[C@@H]2O[C@](O)(C[C@@H](O)C[C@H]3O[C@@H]3/C=C/C(=O)O1)C[C@H](O)[C@H]2C(=O)O` , what is its reported TCF/Wnt firefly luciferase reporter signal?
0.962

Given the compound `COc1cc(O)c(C(=O)c2ccccc2)cc1O` , what is its reported TCF/Wnt firefly luciferase reporter signal?
0.845

Given the compound `COc1ccc(-c2cc(=O)c3c(O)c(OC)c(O[C@@H]4O[C@H](CO[C@@H]5O[C@@H](C)[C@H](O)[C@@H](O)[C@H]5O)[C@@H](O)[C@H](O)[C@H]4O)cc3o2)cc1` , what is its reported TCF/Wnt firefly luciferase reporter signal?
1.08

Given the compound `CNS(=O)(=O)c1ccc(NC(=O)c2ccccc2C(=O)O)cc1` , what is its reported TCF/Wnt firefly luciferase reporter signal?
1.08

Given the compound CCC(=O)OCC(=O)[C@@]1(OC(=O)CC)[C@H](C)CC2C3C([C@@H](O)C[C@@]21C)[C@@]1(C)C=CC(=O)C=C1C[C@H]3Cl (stereo not given in full) , what is its reported TCF/Wnt firefly luciferase reporter signal?
0.926

Given the compound CCCCC/C=C/CCC(=O)N[C@H]1[C@H](Oc2c3cc4cc2Oc2ccc(cc2Cl)[C@@H](O[C@@H]2O[C@H](CO)[C@@H](O)[C@H](O)[C@H]2NC(C)=O)[C@@H]2NC(=O)[C@H](NC(=O)[C@@H]4NC(=O)[C@H]4NC(=O)C(Cc5ccc(c(Cl)c5)O3)NC(=O)[C@H](N)c3ccc(O)c(c3)Oc3cc(O)cc4c3)c3ccc(O)c(c3)-c3c(OC4O[C@H](CO)[C@@H](O)[C@H](O)[C@@H]4O)cc(O)cc3[C@@H](C(=O)O)NC2=O)O[C@H](CO)[C@@H](O)[C@@H]1O (stereo not given in full) [TEICOPLANIN [A(2-1) shown]] , what is its reported TCF/Wnt firefly luciferase reporter signal?
1

Given the compound `Cc1cccc2c3c(ccc12)C1=C(C(=O)C3=O)[C@@H](C)CO1` , what is its reported TCF/Wnt firefly luciferase reporter signal?
1.08

Given the compound `COc1ccc2ccc(=O)oc2c1` , what is its reported TCF/Wnt firefly luciferase reporter signal?
0.915

Given the compound `C[C@H](CCC(=O)O)[C@H]1CC[C@H]2[C@@H]3CC[C@@H]4C[C@H](O)CC[C@]4(C)[C@H]3C[C@H](O)[C@]12C` , what is its reported TCF/Wnt firefly luciferase reporter signal?
1.01

Given the compound `COCCCOc1cc(C[C@@H](C[C@H](NC(=O)OC(C)(C)C)[C@@H]2C[C@@H](C(C)C)C(=O)O2)C(C)C)ccc1OC` , what is its reported TCF/Wnt firefly luciferase reporter signal?
0.998

Given the compound `Nc1nc(=O)c2[nH]c(=O)cnc2[nH]1` , what is its reported TCF/Wnt firefly luciferase reporter signal?
0.987

Given the compound `C[C@@H]1CC[C@H]2[C@](C)(CO)[C@@H](O)CC[C@]2(C)[C@@]12CC[C@@](CO)(CCO)O2` , what is its reported TCF/Wnt firefly luciferase reporter signal?
1.02

Given the compound `O=C([O-])[C@H]1/C(=C/CO)O[C@@H]2CC(=O)N21.[Li+]` , what is its reported TCF/Wnt firefly luciferase reporter signal?
1.12

Given the compound `NCCCC[C@H](NC(=O)[C@H](Cc1ccc(O)cc1)NC(=O)[C@@H](N)CCCCN)C(=O)O` , what is its reported TCF/Wnt firefly luciferase reporter signal?
1.03

Given the compound `O[C@H]1[C@H](O)[C@@H](O)[C@H](O)[C@@H](O)[C@H]1O` , what is its reported TCF/Wnt firefly luciferase reporter signal?
1.07

Given the compound CC(c1cc2ccccc2s1)N(O)C(N)=O (stereo not given) , what is its reported TCF/Wnt firefly luciferase reporter signal?
0.946

Given the compound `CC(C)c1cccc(=O)c(O)c1` , what is its reported TCF/Wnt firefly luciferase reporter signal?
0.985

Given the compound Cc1ccc(S(=O)(=O)NC(=O)NN2CC3CCCC3C2)cc1 (stereo not given) , what is its reported TCF/Wnt firefly luciferase reporter signal?
0.965

Given the compound `O=C(NCO)c1cccnc1` , what is its reported TCF/Wnt firefly luciferase reporter signal?
0.959

Given the compound `Cc1c(NC(=O)c2cccnc2)c(=O)n(-c2ccccc2)n1C` , what is its reported TCF/Wnt firefly luciferase reporter signal?
1
